System: Staphylococcus aureus ATCC 6538
Assay: MIC / FIC index synergy test, 96-well microplate, optical density at 620 nm
Assay type: cell-based
Conditions: compound alone; first concentration giving growth <= 25%
quantity_measured: MIC alone (weight %)

>>> print(df.to_string())
                                   molecule                   assayed_system  quantity_measured  val
0  CCOc1cc(CCC(C)=O)ccc1O [A, 4-(3-ethoxy-4-hydroxyphenyl)butan-2-one]  Staphylococcus aureus ATCC 6538          MIC alone  0.5
1                          C/C=C/C=C/C(=O)O  Staphylococcus aureus ATCC 6538          MIC alone  0.5
2  O=C([O-])c1ccccc1.[Na+] [B1, sodium benzoate]  Staphylococcus aureus ATCC 6538          MIC alone  0.5
3  COC(=O)c1ccc(O)cc1 [B4, methyl 4-hydroxybenzoate]  Staphylococcus aureus ATCC 6538          MIC alone    1

###

Tested on: Pseudomonas aeruginosa ATCC 9027
Test: MIC / FIC index synergy test, 96-well microplate, optical density at 620 nm
Assay type: cell-based
Settings: first concentration giving growth <= 25%
Text: FIC Index=([…]) with: • MICa with B: minimum concentration of product A in the combination A+B which makes it possible to obtain an inhibitory effect • MICb with A: minimum concentration of product B in the combination A+B which makes it possible to obtain an inhibitory effect. • MICa: minimum inhibitory concentration of product A alone. • MICb: minimum inhibitory concentration of product B alone. […]
quantity_measured: MIC of compound alone (weight %)

In [3]: df
Out[3]:
                                   compound  val
0  CCCOC(=O)c1ccc(O)cc1 [B5, propyl 4-hydroxybenzoate]    1
1  O=C([O-])c1ccccc1.[Na+] [B1, sodium benzoate]    1
2                          C/C=C/C=C/C(=O)O  0.5
3  COC(=O)c1ccc(O)cc1 [B4, methyl 4-hydroxybenzoate]  0.5

###

Quick list: microbial growth percentage per entry.
System: Candida albicans ATCC 10231
Assay: MIC / FIC index synergy test, 96-well microplate, optical density at 620 nm
Type: cell-based
Conditions: compound alone, 0.025 weight %
quantity_measured: microbial growth percentage (%)

>>> print(df.to_string())
                                   compound               assayed_system  unit_of_measurement  val
0  O=C([O-])c1ccccc1.[Na+] [B1, sodium benzoate]  Candida albicans ATCC 10231                    %   55
1  COC(=O)c1ccc(O)cc1 [B4, methyl 4-hydroxybenzoate]  Candida albicans ATCC 10231                    %   67
2  CCCCCCCC(=O)c1ccc(O)c(C(=O)O)c1 [B6, 5-n-octanoylsalicylic acid]  Candida albicans ATCC 10231                    %   40
3        C/C=C/C=C/C(=O)O [B2, sorbic acid]  Candida albicans ATCC 10231                    %   37
4  CCCOC(=O)c1ccc(O)cc1 [B5, propyl 4-hydroxybenzoate]  Candida albicans ATCC 10231                    %   52
